Recorded pEC50 by entry
# target_under_test: hNLRP3 (Homo sapiens)
# Construct: THP-1 cells were purchased from the American Type Culture Collection; host or cells: THP-1 cells, PMA-differentiated
# assay_text: hNLRP3 agonist assay: IL-1β production in PMA-differentiated THP-1 cells (ELISA)
# Assay type: cell-based
# test_context: Table 2, 4 hours, IL-1β by ELISA
pEC50: −log10 of the molar value.

Some solved cases for reference:
# compound, test_result
rows = [
    ("Nc1nc2cc(-c3cccnc3Cl)ccc2c2[nH]c(CCCO)nc12", "< 4.00"),
    ("Nc1nc2cc(-c3ccccc3F)ccc2c2[nH]c(CCCO)nc12", "< 4.00"),
    ("Nc1nc2cc(C(F)(F)F)ccc2c2[nH]c(CCCO)nc12", "4.00 to 4.70"),
    ("CCN(C(C)=O)C(C)(C)c1nc2c(N)nc3cc(-c4cc[nH]n4)ccc3c2[nH]1", "4.70 to 6.00"),
    ("COc1ccccc1-c1ccc2c(c1)nc(N)c1nc(CCCO)[nH]c12", "< 4.00"),
]

IN: For the record Nc1nc2cc(-c3cc[nH]n3)ccc2c2[nH]c(CN3CC4COCC4C3)nc12 (stereo not drawn) , what value of pEC50 is listed for hNLRP3 (Homo sapiens)?
OUT: 4.70 to 6.00

====

# target_under_test: hNLRP3 (Homo sapiens, UniProt Q96P20)
# Construct: THP-1 cells were purchased from the American Type Culture Collection; host or cells: THP-1 cells, PMA-differentiated
# Sequence (Q96P20 whole entry): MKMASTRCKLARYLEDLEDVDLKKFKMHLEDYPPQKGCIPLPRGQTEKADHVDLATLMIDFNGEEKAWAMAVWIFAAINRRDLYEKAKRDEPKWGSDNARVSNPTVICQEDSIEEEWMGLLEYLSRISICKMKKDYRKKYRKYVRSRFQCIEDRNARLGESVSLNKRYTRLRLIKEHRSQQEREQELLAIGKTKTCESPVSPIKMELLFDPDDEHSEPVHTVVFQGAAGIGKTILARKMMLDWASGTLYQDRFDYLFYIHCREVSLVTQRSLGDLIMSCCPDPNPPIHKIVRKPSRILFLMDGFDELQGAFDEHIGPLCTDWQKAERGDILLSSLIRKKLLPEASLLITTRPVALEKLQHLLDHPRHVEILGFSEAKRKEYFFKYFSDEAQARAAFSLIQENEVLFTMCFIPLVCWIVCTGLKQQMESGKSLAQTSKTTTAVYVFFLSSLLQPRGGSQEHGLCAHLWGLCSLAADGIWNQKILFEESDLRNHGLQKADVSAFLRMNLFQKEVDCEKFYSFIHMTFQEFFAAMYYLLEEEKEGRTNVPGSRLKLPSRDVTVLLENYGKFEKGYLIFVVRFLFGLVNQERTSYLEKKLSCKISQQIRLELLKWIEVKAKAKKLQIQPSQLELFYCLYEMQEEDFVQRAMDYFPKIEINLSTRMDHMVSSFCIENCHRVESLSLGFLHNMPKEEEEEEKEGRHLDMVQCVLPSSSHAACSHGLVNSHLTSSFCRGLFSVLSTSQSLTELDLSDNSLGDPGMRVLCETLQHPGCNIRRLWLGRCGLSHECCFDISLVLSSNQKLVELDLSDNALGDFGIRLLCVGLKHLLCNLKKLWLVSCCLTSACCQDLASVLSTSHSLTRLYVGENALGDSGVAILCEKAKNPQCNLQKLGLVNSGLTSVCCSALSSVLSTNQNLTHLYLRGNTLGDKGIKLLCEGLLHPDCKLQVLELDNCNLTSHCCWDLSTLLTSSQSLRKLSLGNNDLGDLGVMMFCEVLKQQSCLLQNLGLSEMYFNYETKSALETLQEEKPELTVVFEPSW
# assay_text: hNLRP3 agonist assay: IL-1β production in PMA-differentiated THP-1 cells (ELISA)
# Assay type: cell-based
# test_context: Table 2, 4 hours, IL-1β by ELISA
readout_label: EC50

# molecule, readout_label, test_result
measured = [
    ("N#Cc1cccc(-c2ccc3c(c2)nc(N)c2nc(CCCO)[nH]c23)c1", "EC50", "> 100 µM"),
    ("CN(CCCc1nc2c(N)nc3cc(-c4cncnc4)ccc3c2[nH]1)C(=O)OC(C)(C)C", "EC50", "1 to 20 µM"),
    ("CC(C(N)=O)c1ccc2c(c1)nc(N)c1nc(CCCO)[nH]c12 (stereo not drawn)", "EC50", "1 to 20 µM"),
    ("Nc1nc2cc(Br)c(F)cc2c2[nH]c(CCCO)nc12", "EC50", "1 to 20 µM"),
    ("Cc1ccncc1-c1ccc2c(c1)nc(N)c1nc(CCCO)[nH]c12", "EC50", "> 100 µM"),
]

IN: Value lookup for EC50; key = "CCCn1cc(-c2ccc3c(c2)nc(N)c2nc(CCCOCc4ccccc4)[nH]c23)cn1"
OUT: 20 to 100 µM

IN: Try this molecule next: "CC(=O)N1CCC(c2nc3c(N)nc4cc(Br)ccc4c3[nH]2)CC1"
OUT: 20 to 100 µM

IN: Try this molecule next: "COc1cccc(-c2ccc3c(c2)nc(N)c2nc(CCCO)[nH]c23)n1"
OUT: 1 to 20 µM

IN: Try this molecule next: "Nc1nc2cc(Oc3ccccc3)ccc2c2[nH]c(CCCO)nc12"
OUT: 20 to 100 µM

====

# target_under_test: hNLRP3 (Homo sapiens)
# Construct: THP-1 cells were purchased from the American Type Culture Collection; host or cells: THP-1 cells, PMA-differentiated
# assay_text: hNLRP3 agonist assay: IL-1β production in PMA-differentiated THP-1 cells (ELISA)
# Assay type: cell-based
# test_context: Table 2, 4 hours, IL-1β by ELISA
pEC50: −log10 of the molar value.
readout_label: pEC50

# molecule, pEC50
measured = [
    ("CCN(C(=O)OC(C)(C)C)C(C)c1nc2c(N)nc3cc(-c4cc[nH]n4)ccc3c2n1Cc1ccc(OC)cc1 (centres unmarked) [Compound 242]", "4.70 to 6.00"),
    ("Nc1nc2cc(Cl)c(Cl)cc2c2[nH]c(CCCO)nc12 [Compound 126]", "4.70 to 6.00"),
    ("Nc1nc2cc(-c3cnc4ccccc4c3)ccc2c2[nH]c(CCCO)nc12 [Compound 191]", "< 4.00"),
]

IN: Value lookup for pEC50; key = Nc1nc2cc(N3CCCCC3)ccc2c2[nH]c(CCCO)nc12 [Compound 167]
OUT: < 4.00

IN: Try this molecule next: CC(=O)c1ccc2c(c1)nc(N)c1nc(CCCO)[nH]c12 [Compound 119]
OUT: 4.70 to 6.00

IN: Try this molecule next: CC(C)(C)OC(=O)N1CCC(c2nc3c(N)nc4cc(-n5cccn5)ccc4c3[nH]2)CC1 [Compound 218]
OUT: ≥ 6.00

IN: Try this molecule next: Cc1ncc(-c2ccc3c(c2)nc(N)c2nc(CCCOCc4ccccc4)[nH]c23)cn1 [Compound 154]
OUT: 4.70 to 6.00

IN: Try this molecule next: Cc1ccc(-c2ccc3c(c2)nc(N)c2nc(CCCO)[nH]c23)cc1 [Compound 210]
OUT: < 4.00
